system: furin, P09958;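 note: purified furin at 1:10 enzyme:substrate in 50 mM HEPES pH 7.5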
Sequence (P09958 whole entry): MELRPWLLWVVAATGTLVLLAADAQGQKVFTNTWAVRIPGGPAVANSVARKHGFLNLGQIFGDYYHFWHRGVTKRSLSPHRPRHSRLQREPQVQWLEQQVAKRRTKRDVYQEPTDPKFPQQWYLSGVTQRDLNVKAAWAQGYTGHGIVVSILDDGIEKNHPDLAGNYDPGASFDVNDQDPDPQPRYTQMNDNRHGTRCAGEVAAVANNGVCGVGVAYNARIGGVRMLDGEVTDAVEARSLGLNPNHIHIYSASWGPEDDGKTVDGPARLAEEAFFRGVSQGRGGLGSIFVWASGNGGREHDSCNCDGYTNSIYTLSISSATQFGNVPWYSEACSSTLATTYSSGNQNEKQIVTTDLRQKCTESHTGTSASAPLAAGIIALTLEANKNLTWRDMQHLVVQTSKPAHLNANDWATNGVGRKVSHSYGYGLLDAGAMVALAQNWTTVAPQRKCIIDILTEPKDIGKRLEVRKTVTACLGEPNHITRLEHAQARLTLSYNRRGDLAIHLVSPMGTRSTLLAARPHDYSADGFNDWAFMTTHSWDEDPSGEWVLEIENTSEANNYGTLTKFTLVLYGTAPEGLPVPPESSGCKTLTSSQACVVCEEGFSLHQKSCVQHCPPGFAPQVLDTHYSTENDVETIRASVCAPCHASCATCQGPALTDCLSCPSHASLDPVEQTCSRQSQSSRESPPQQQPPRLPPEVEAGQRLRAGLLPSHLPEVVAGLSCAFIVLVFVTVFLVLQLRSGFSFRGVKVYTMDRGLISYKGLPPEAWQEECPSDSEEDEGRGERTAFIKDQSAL
method description: furin cleavage Z-score vs untreated control; higher = more cleavage, active = 3.5 or more, inactive = 1 or less, 8 variable residues between constant flanks
condition summary: 7.5 min
This is one part of the list. No count for the full screen is at hand.
Respond with condition met for furin cleavage Z-score values of 0.05 and above, condition not met for values below.

         macromolecule_sequence        label_class
0  CARPERGARGAGNASASA [FS-2737]  condition not met
1  CARKRRDVMQAGNASASA [FS-1905]      condition met
2    CAGGCSGGAYAGNASASA [HC812]  condition not met
3   CATSRSACQRAGNASASA [HC1391]      condition met
4  CARPERKRRDAGNASASA [FS-1066]      condition met
5   CARTPCSGSWAGNASASA [HC1833]  condition not met
6  CARPERGPRGAGNASASA [FS-1264]      condition met
